Molecular target: T1, mouse programmed cell death protein 1 Fc fusion protein (mPD-1-Fc), mPD-1 C60S (aa 25-167) (Mus musculus, UniProt Q02242, stabilised)
T1 construct: not cleaved; source: Expi293F, purified (Protein A, SEC; dimeric fraction); not shown: Fc (human), C-terminal, kept
Test: SPR; Carterra LSA; Fab from the ammonium sulfate precipitate of the culture supernatant immobilised on a NiHC200M chip; hPD-1 (1-1024 nM) or mPD-1-Fc (4-1024 nM) as analyte, fourfold dilution series, no regeneration; HBS-EP pH 7.4, 25 °C; medians over the spots of a construct, KD = koff/kon
Details: one partner purified
We label by threshold. Values of koff strictly beneath 0.009 s⁻¹ are yes (1). Values of 0.009 s⁻¹ and up are no (0).

BINDER	LABEL
toripalimab Fab H.N61Y (Fab, V domains shown, heavy chain of Sm3 with this change; numbers count from the chain's first residue; as the light chain of Sm3; source: Brevibacillus, culture supernatant (ammonium sulfate precipitate); not shown: 6xHis, C-terminal, kept; 6xHN, C-terminal, kept) VH: QGQLVQSGAEVKKPGASVKVSCKASGYTFTDYEMHWVRQAPIHGLEWIGVIESETGGTAYYQKFKGRVTITADKSTSTAYMELSSLRSEDTAVYYCAREGITTVATTYYWYFDVWGQGTTVTVSS VL: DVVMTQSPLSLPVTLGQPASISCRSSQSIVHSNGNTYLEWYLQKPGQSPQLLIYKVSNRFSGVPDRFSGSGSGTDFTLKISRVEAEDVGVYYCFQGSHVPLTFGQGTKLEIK	yes (1)

input: Lab note: confirm whether the reported koff for this binder is below 0.009 s⁻¹, equality not counting. binder: toripalimab Fab L.I29A (Fab, V domains shown, as the heavy chain of Sm3; light chain of Sm3 with this change; numbers count from the chain's first residue; source: Brevibacillus, culture supernatant (ammonium sulfate precipitate); not shown: 6xHis, C-terminal, kept; 6xHN, C-terminal, kept) VH: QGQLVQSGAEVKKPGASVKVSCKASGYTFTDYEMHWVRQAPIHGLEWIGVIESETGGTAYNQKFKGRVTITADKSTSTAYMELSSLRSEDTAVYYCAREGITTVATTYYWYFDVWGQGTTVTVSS VL: DVVMTQSPLSLPVTLGQPASISCRSSQSAVHSNGNTYLEWYLQKPGQSPQLLIYKVSNRFSGVPDRFSGSGSGTDFTLKISRVEAEDVGVYYCFQGSHVPLTFGQGTKLEIK
output: yes (1)

input: Lab note: confirm whether the reported koff for this binder is below 0.009 s⁻¹, equality not counting. binder: toripalimab Fab L.L101Q (Fab, V domains shown, as the heavy chain of Sm3; light chain of Sm3 with this change; numbers count from the chain's first residue; source: Brevibacillus, culture supernatant (ammonium sulfate precipitate); not shown: 6xHis, C-terminal, kept; 6xHN, C-terminal, kept) VH: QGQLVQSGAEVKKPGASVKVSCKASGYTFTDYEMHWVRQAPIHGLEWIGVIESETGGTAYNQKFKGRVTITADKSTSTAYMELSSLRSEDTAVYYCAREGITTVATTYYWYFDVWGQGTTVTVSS VL: DVVMTQSPLSLPVTLGQPASISCRSSQSIVHSNGNTYLEWYLQKPGQSPQLLIYKVSNRFSGVPDRFSGSGSGTDFTLKISRVEAEDVGVYYCFQGSHVPQTFGQGTKLEIK
output: no (0)
